System: 966289-007-R4-J1-PDC complex spheroid viability;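 further: spheroids exposed to the agents for seven days before readout; percent viability relative to DMSO vehicle control wells taken as 100%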
PROCEDURE TEXT: Anticancer human tumor 966289-007-R4-J1-PDC patient-derived pancreatic adenocarcinoma cell line growth inhibition [GQUAD]
STATED CONDITIONS: second compound 0.316 µM; first compound 10 µM; hits give low values
VALUE KIND: viability, T/C (%)
A number alone suffices; assume %.

Measured viability, T/C, O=C(NO)c1cnc(N2CCN(S(=O)(=O)c3ccc4ccccc4c3)CC2)nc1 + Cc1cnc(CNC(=O)c2c(=O)c3ccc(N4CCCN(C)CC4)nc3n3c2sc2ccccc23)cn1 : 0.05

molecule CC(=O)O[C@H]1C(=O)[C@@]2(C)[C@H]([C@H](OC(=O)c3ccccc3)[C@]3(O)C[C@H](OC(=O)[C@H](O)[C@@H](NC(=O)c4ccccc4)c4ccccc4)C(C)=C1C3(C)C)[C@]1(OC(C)=O)CO[C@@H]1C[C@@H]2O + CN(C)c1ccc(Nc2c3ccc(NC(=O)CCN4CCCC4)cc3nc3cc(NC(=O)CCN4CCCC4)ccc23)cc1 , viability, T/C observed: 12.6

molecule C=CC(=O)N1CCN(c2nc(=O)n(-c3c(C)ccnc3C(C)C)c3nc(-c4c(O)cccc4F)c(F)cc23)C(C)C1 (stereo unspecified) + CN(C)c1ccc(Nc2c3ccc(NC(=O)CCN4CCCC4)cc3nc3cc(NC(=O)CCN4CCCC4)ccc23)cc1 , viability, T/C observed: 111

Reported viability, T/C for O=c1[nH]cc(F)c(=O)[nH]1 + Cc1cnc(CNC(=O)c2c(=O)c3ccc(N4CCCN(C)CC4)nc3n3c2sc2ccccc23)cn1 was 12.7

viability, T/C recorded for this molecule, O=C(c1cc(Cc2n[nH]c(=O)c3ccccc23)ccc1F)N1CCN(C(=O)C2CC2)CC1 + Cc1[nH]c2ccc(F)cc2c1-c1nc2c3cccnc3c3ncccc3c2[nH]1 , is 15

The reported viability, T/C of the molecule COc1ccc([C@@H](O)c2cc(-c3ncnc4cc(N5CCOCC5)ccc34)c(F)cc2Cl)nn1 + CN(C)c1ccc(Nc2c3ccc(NC(=O)CCN4CCCC4)cc3nc3cc(NC(=O)CCN4CCCC4)ccc23)cc1 was 90.6
